# System: M. tuberculosis H37Rv growth inhibition, 7H9 media
# ASSAY TEXT: M. tuberculosis growth inhibition, HTS (AID 449762);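 note: bacterial growth assessed after seven days of incubation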
# TEST SETTINGS: measured here: IC90 growth inhibition
Inconclusive results are not listed.
Collected IC90 values appear next to each entry.
MEASURED ENDPOINT: IC90

1) CCc1ccc(CCOc2ccc(CC3SC(=O)NC3=O)cc2)nc1 (stereo not given)
> 25 µM
2) Cn1ccnc1C(O)c1cc(C(C)(C)C)c(O)c(C(C)(C)C)c1 (stereo not given)
> 100 µM
3) Cc1ncsc1CCOC(=O)c1ccc([N+](=O)[O-])cc1
> 100 µM
4) O=C(Nc1nc(-c2cc(Cl)sc2Cl)cs1)c1cccs1
> 100 µM
5) COC(OC)c1ccnc(-c2ccc(OC(=O)c3cccs3)cc2)n1
> 100 µM
